Would you kindly list inhibition for each of these molecules?
# Target entity: Amyloid-beta precursor protein (Homo sapiens, UniProt P05067)
# Sequence (P05067 whole entry): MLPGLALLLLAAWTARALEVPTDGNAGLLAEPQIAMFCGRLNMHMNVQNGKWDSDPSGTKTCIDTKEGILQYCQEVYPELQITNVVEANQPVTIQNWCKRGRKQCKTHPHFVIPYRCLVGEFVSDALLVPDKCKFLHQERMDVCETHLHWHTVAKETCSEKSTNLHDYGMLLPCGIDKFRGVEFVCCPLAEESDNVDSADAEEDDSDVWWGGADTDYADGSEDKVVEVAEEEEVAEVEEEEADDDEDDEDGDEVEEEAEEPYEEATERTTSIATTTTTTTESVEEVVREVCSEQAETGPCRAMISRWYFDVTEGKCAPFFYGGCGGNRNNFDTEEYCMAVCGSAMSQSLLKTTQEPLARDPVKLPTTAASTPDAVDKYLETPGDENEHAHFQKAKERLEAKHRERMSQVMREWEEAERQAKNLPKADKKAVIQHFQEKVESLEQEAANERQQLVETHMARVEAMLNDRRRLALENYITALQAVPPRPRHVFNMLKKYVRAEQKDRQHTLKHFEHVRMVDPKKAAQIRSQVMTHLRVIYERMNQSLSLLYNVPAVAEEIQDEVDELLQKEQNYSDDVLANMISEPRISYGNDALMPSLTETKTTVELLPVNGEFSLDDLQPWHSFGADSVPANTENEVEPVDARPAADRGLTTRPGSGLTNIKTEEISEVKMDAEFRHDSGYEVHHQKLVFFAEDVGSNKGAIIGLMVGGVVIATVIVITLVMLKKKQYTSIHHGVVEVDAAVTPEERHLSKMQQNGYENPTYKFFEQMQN
# Assay info: Inhibition of amyloid beta (1 to 42) aggregation (unknown origin) at 10 uM by thioflavin T fluorescence method
Numbers only, in %.

• C[C@@H](C(=O)NCCCNCCCNC1=CC(=O)C(NCCCNCCCNC(=O)[C@H](C)c2ccc(-c3ccccc3)c(F)c2)=CC1=O)c1ccc(-c2ccccc2)c(F)c1 = 87.2
• CC(C)Cc1ccc(C(C)C(=O)NCCCNCCCNC2=CC(=O)C(NCCCNCCCNC(=O)C(C)c3ccc(CC(C)C)cc3)=CC2=O)cc1 (stereo unspecified) = 82.6
• CC(C(=O)NCCCNC1=CC(=O)C(NCCCNC(=O)C(C)c2ccc(-c3ccccc3)c(F)c2)=CC1=O)c1ccc(-c2ccccc2)c(F)c1 (stereo unspecified) = 12.7

Which inhibition value is on record for O=C(Cc1ccccc1Nc1c(Cl)cccc1Cl)NCCCNCCCNC1=CC(=O)C(NCCCNCCCNC(=O)Cc2ccccc2Nc2c(Cl)cccc2Cl)=CC1=O ?
74.9
